Assay: qHTS of pediatric cancer cell lines to identify multiple opportunities for drug repurposing: Confirmatory screen for NB-EBc1 cells (AID 1347115);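 also: potency is read from the fitted curve at half-maximal effect; cells exposed to compound for 48 h before the viability read; nearly all actives have a fitted effect of over 45% in size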
Conditions: NB-EBc1 neuroblastoma cells, viability (cytotoxicity); series mostly up to 45.9 µM
Results filed as inconclusive are left out. Calls of active or inactive are those of the source. Calls follow the shape of the dose curve; as a rule, active = well fitted cell-killing curve with a large enough effect; inconclusive = small, poorly fitted or top-dose-only effect, or effect the other way; inactive = no such curve, though single readings can be large or run the other way.

structure.as.smiles	Potency
CC1(C)O[C@@H]2C[C@@H]3[C@H]4C[C@@H](F)C5=CC(=O)C=C[C@]5(C)[C@@]4(F)[C@@H](O)C[C@]3(C)[C@]2(C(=O)CO)O1	11.7 µM (active)
Nc1ncnc2c1c(-c1cnc3[nH]ccc3c1)nn2C1CCCC1	10.4 µM (active)
Cn1c(=O)n(-c2ccc(C(C)(C)C#N)cc2)c2c3cc(-c4cnc5ccccc5c4)ccc3ncc21	7.37 µM (active)

* * *

Test: qHTS of pediatric cancer cell lines to identify multiple opportunities for drug repurposing: Primary screen for OHS-50 cells (AID 1347103); also: nearly all actives have a fitted effect of over 40% in size
Conditions: OHS-50 osteosarcoma viability, CellTiter-Glo luminescence, 48 h; series mostly up to 57.3 µM
Records with an inconclusive call do not appear. Activity calls are given as the source filed them. Calls follow the shape of the dose curve; as a rule, active = well fitted cell-killing curve with a large enough effect; inconclusive = small, poorly fitted or top-dose-only effect; inactive = no such curve, though single readings can be large or run the other way.
Labels: Y = active, N = inactive

compound	category.label
COCCn1c2c([n+](Cc3cnccn3)c1C)C(=O)c1ccccc1C2=O	Y
CC(C)c1cc(C(=O)N2Cc3ccc(CN4CCN(C)CC4)cc3C2)c(O)cc1O	Y
COC(=O)Nc1ccc(-c2nc(N3CCOCC3)c3cnn(C4CCN(Cc5cccnc5)CC4)c3n2)cc1	Y
CC[C@@H]1C(=O)N(C)c2cnc(Nc3ccc(C(=O)NC4CCN(C)CC4)cc3OC)nc2N1C1CCCC1	Y
Cn1c2ccccc2c2c3c(c4c5ccccc5n(CCC#N)c4c21)CNC3=O	Y
Cc1ccc(S(=O)(=O)Nc2cc(Cl)ccc2C(=O)Nc2nc(-c3ccccc3)cs2)cc1	Y
CC(C)c1nn(-c2c(Cl)cccc2Cl)c2nc(Cc3ccc(OCCO)cc3)[nH]c(=O)c12	Y
c1nc2nc(Nc3ccc(N4CCOCC4)cc3)nc(NC3CCCCC3)c2[nH]1	Y
COc1cc(OC2CCN(C)CC2)ccc1Nc1ncc2c(n1)n(C1CCCC1)c(=O)n2C	Y
COc1cccc(Nc2c(C(N)=O)cnc3c(C)cc(S(=O)(=O)c4cccc(C(=O)N(C)C)c4)cc23)c1	Y
O=C(O)CCCc1c[nH]c2ccccc12	N
Nc1nc(Nc2ccc(S(N)(=O)=O)cc2)nn1C(=O)c1c(F)cccc1F	Y
CC1(O)CC(c2nc(-c3ccc4ccc(-c5ccccc5)nc4c3)c3c(N)nccn23)C1 (stereo unspecified)	Y
Cc1[nH]c2ccccc2c1CCNCc1ccc(C=CC(=O)NO)cc1	Y
COc1ccc2c(c1)CC[C@@H](CN(C)CC(=O)O)[C@H]2c1ccccc1	Y
CC(C)(C)OC(=O)Nc1ccc(-c2cc(C(=O)NCCCCCCC(=O)NO)no2)cc1	Y

* * *

The following compounds are listed with their measured Potency values.
Assay: Quantitative High-Throughput drug screen in 47 multiple myeloma cell lines against the NCATS MIPE library collection: EJM_DSMZ cell viability assay (AID 1918926; also: potency is read from the fitted curve at half-maximal effect; nearly all actives have a fitted effect of over 30% in size)
Details: EJM myeloma cell viability, CellTiter-Glo ATP, 48 h; series mostly up to 45.8 µM
Inconclusive results are not listed. The source made the active and inactive calls. Calls come from the whole dose curve; as a rule, active = well fitted cell-killing curve with a large enough effect; inconclusive = small, poorly fitted or top-dose-only effect, or effect the other way; inactive = no such curve, though single readings can be large or run the other way.
observable: Potency

compound	observable	result
COc1ccc(-c2cc3c(C)nc(N)nc3n(C3CCC(OCCO)CC3)c2=O)cn1 (stereo not drawn)	Potency	132 nM (active)
CC1(C)CCC(c2ccc(Cl)cc2)=C(CN2CCN(c3ccc(C(=O)NS(=O)(=O)c4ccc(N[C@H](CCN5CCOCC5)CSc5ccccc5)c(S(=O)(=O)C(F)(F)F)c4)cc3)CC2)C1	Potency	8330 nM (active)
CCCCOc1c(C(=O)c2c(F)cc(C)cc2F)cnc2n[nH]cc12	Potency	2640 nM (active)

* * *

Test: qHTS of pediatric cancer cell lines to identify multiple opportunities for drug repurposing: Confirmatory screen for BT-37 cells (AID 1347117);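 also: viability measured after 48 h of compound exposure; nearly all actives have a fitted effect of over 55% in size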
Conditions: BT-37 pediatric cancer cells, viability; series mostly up to 45.9 µM
Results filed as inconclusive are left out. Active and inactive are the calls of the source. Calls come from the whole dose curve; as a rule, active = well fitted cell-killing curve with a large enough effect; inconclusive = small, poorly fitted or top-dose-only effect; inactive = no such curve, though single readings can be large or run the other way.
Possible outcomes: 1 = active, -1 = inactive

structure.as.smiles	category.label
CC[C@@H]1C(=O)N(C)c2cnc(Nc3ccc(C(=O)NC4CCN(C)CC4)cc3OC)nc2N1C1CCCC1	1
CNC(=O)CN1CCC(Oc2cc3c(Nc4cccc(Cl)c4F)ncnc3cc2OC)CC1	1
Cc1ccc(C(N)=O)cc1Nc1nccc(-c2cn(C(C)C)c3cnccc23)n1	1
CC[C@@]1(O)C(=O)OCc2c1cc1n(c2=O)Cc2cc3cc(O)ccc3nc2-1	1
Cc1ccc(-c2ncn(-c3ccc(Nc4nccc(-c5cccc(N6CCOCC6)c5)n4)cc3)n2)cn1	1
Cc1nc2cnc3ccc(C#Cc4cccnc4)cc3c2n1-c1ccc(C(C)(C)C#N)cc1	1
Cc1cc(Nc2ncnc3ccc(-c4ccc(CNCCS(C)(=O)=O)o4)cc23)ccc1Oc1ccn2ncnc2c1	1
COc1cc2c(Oc3ccc(NC(=O)C4(C(=O)Nc5ccc(F)cc5)CC4)cc3F)ccnc2cc1OCCCN1CCOCC1	1
COc1cccc2c(NCc3ccccc3)nc(-n3c(N)nc4ccccc43)nc12	1
COc1cc2c(Oc3ccc(-c4cnc(Nc5ccc(F)cc5)n(C)c4=O)cc3F)ccnc2cc1OCCCN1CCOCC1	1
CC(C)[C@H](C(=O)Nc1ccc(C(=O)NO)cc1)c1ccccc1	1
COC(=O)[C@]12CCC(C)(C)C[C@@H]1[C@@H]1C(=O)C=C3[C@@]4(C)C=C(C#N)C(=O)C(C)(C)[C@@H]4CC[C@@]3(C)[C@]1(C)CC2	1
CN(c1ncccc1CNc1nc(Nc2ccc3c(c2)CC(=O)N3)ncc1C(F)(F)F)S(C)(=O)=O	1
OCCCNc1cc(-c2ccnc(Nc3cccc(Cl)c3)n2)ccn1	1
CC(C)c1nn(-c2c(Cl)cccc2Cl)c2nc(Cc3ccc(OCCO)cc3)[nH]c(=O)c12	1
CCN1CCN(Cc2ccc(-c3cc4c(N[C@H](C)c5ccccc5)ncnc4[nH]3)cc2)CC1	1
C=CC(=O)Nc1cc2c(Nc3ccc(F)c(Cl)c3)ncnc2cc1C#CC(C)(C)N1CCN(C)CC1	1
CCn1nnc2c(N3CCOCC3)nc(-c3ccc(NC(=O)Nc4ccc(C(=O)N5CCN(C)CC5)cc4)cc3)nc21	1
CC1(C)O[C@@H]2C[C@@H]3[C@H]4C[C@@H](F)C5=CC(=O)C=C[C@]5(C)[C@@]4(F)[C@@H](O)C[C@]3(C)[C@]2(C(=O)CO)O1	1
CCS(=O)(=O)c1cccc(-c2cc(C(=O)NC3CCN(C)CC3)c(C)c3[nH]c4ncc(C)cc4c23)c1	1
Cc1cnc(-c2cnc(NCCNc3ccc(C#N)cn3)nc2-c2ccc(Cl)cc2Cl)[nH]1	-1
C#Cc1cccc(Nc2ncnc3cc(OC)c(OCCCCCCC(=O)NO)cc23)c1	1
CS(=O)(=O)N1CCN(Cc2cc3nc(-c4cccc5[nH]ncc45)nc(N4CCOCC4)c3s2)CC1	1
C[C@@H](Oc1cc(-c2cnn(C3CCNCC3)c2)cnc1N)c1c(Cl)ccc(F)c1Cl	1
CCNC(=O)Nc1ccc2ncc(Nc3ccc(C)cc3)nc2n1	-1

* * *

Experiment: qHTS profiling of the MIPE4 collection as inhibitors of Plasmodium falciparum (DD2) proliferation (Rep 2) (AID 743346)
Conditions: P. falciparum Dd2 in erythrocytes, SYBR Green DNA, 72 h; at 28.5 µM (top of the series) unless noted
observable: parasite growth, % of control (lower = inhibition) (%)

structure.as.smiles	units	result.number
CNc1nccc(-c2cccnc2Oc2cc(C(=O)Nc3cccc(C(F)(F)F)c3)ccc2C)n1	%	19.8
Cc1[nH]nc2ccc(-c3cncc(OC[C@@H](N)Cc4ccccc4)c3)cc12	%	20.4

* * *

Assay: qHTS profiling of the MIPE4 collection as inhibitors of Plasmodium falciparum (3D7) proliferation (AID 743344);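 also: scaled between DMSO vehicle wells and 0.29 µM artemisinin as full inhibition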
Settings: P. falciparum 3D7 in erythrocytes, SYBR Green DNA fluorescence, 72 h; at 28.5 µM (top of the series) unless noted
Assign True whenever parasite growth, % of DMSO control does not fall below 6%; assign False whenever it does.

molecule	category.label
Cc1ccc(S(=O)(=O)Nc2cc(Cl)ccc2C(=O)Nc2nc(-c3ccccc3)cs2)cc1	True
CCN(CC)CCNC(=O)c1ccc2nc(-c3ccccc3)c(-c3ccc(CN4CCC(n5c(=O)[nH]c6ccccc65)CC4)cc3)nc2c1	False
COc1cc(=C2C=c3ccccc3=N2)[nH]c1=Cc1[nH]c(C)cc1C	False
COCCn1c2c([n+](Cc3cnccn3)c1C)C(=O)c1ccccc1C2=O	True
Cc1c(CN2CCN(S(C)(=O)=O)CC2)sc2c(N3CCOCC3)nc(-c3cnc(N)nc3)nc12	False
CC1(O)CC(c2nc(-c3ccc4ccc(-c5ccccc5)nc4c3)c3c(N)nccn23)C1 (centres undefined)	True
Nc1cccc(-c2cc3c(Oc4cccc(O)c4)ncnc3[nH]2)c1	True
CCCCCCCCCC(=O)N[C@@H](Cc1c[nH]c2ccccc12)C(=O)N[C@H](CC(N)=O)C(=O)N[C@@H](CC(=O)O)C(=O)N[C@@H]1C(=O)NCC(=O)N[C@@H](CCCN)C(=O)N[C@@H](CC(=O)O)C(=O)N[C@H](C)C(=O)N[C@@H](CC(=O)O)C(=O)NCC(=O)N[C@H](CO)C(=O)N[C@@H]([C@@H](C)CC(=O)O)C(=O)N[C@@H](CC(=O)c2ccccc2N)C(=O)O[C@@H]1C	True
